Where these numbers come from: patent US20240109962A1

target: T1, human LILRB2 expressed on cells (293T-LILRB2, CHO-K1-LILRB2) (human, UniProt Q8N423 22-597); test: flow cytometry on 293T-LILRB2 cells, serial dilution, APC anti-human IgG; fit table under the graph
T1 construct: whole, on cells; the cell line is named under assay; also called HEK293T-LILRB2
T1 sequence (Q8N423 22-597): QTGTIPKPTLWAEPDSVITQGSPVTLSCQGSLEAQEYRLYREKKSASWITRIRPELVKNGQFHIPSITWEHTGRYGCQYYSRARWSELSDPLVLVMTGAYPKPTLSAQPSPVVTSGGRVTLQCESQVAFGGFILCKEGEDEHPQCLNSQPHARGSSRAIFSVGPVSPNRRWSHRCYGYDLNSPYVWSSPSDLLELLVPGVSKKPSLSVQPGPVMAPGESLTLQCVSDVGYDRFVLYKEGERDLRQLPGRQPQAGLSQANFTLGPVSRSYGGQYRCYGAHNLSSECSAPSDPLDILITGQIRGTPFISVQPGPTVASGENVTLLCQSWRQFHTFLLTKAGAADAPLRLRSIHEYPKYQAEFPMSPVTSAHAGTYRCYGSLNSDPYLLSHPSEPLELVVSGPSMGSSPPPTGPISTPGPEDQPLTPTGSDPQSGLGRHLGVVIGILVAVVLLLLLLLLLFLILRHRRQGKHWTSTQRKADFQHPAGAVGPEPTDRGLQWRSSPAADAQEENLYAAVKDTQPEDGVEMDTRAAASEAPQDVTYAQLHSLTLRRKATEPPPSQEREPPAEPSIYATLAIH
pKd: −log10 of the molar value.
// values below are reported pKd
MEASURED_ENDPOINT: pKd

BINDER: h#2G3 (antibody, V domains shown, also called Antibody h#2G3) VH: EVQLVESGGGLVQPGGSLRLSCAVSGYSITSGYYWNWIRQAPGKGLEWVAYISYDGNNNYNPSLKNRFTISRDTSKNTVYLQMNSLRAEDTAVYYCAREESTMITTAWFAYWGQGTLVTVSS VL: DIQLTQSPSSLSASVGDRVTITCRASENIYSNLAWYQQKPGKAPKLLIYGATNLASGVPSRFSGSGSGTDYTLTISSLQPEDFATYYCQHFWDTPYTFGQGTKVEIK
REPORTED_VALUE: 9.27
--
BINDER: Antibody h#2D2 (antibody, V domains shown, Humanized variant of 11B12) VH: EVQLVESGGGLVQPGGSLRLSCAVSGYSITSGYYWNWIRQAPGKGLEWVAYISYDGNNNYNPSLKNRFTISRDASKNTFYLQMNSLRAEDTAVYYCAREESTMITTAWFAYWGQGTLVTVSS VL: DIQMTQSPSSLSASVGDRVTITCRASENIYSNLAWYQQKPGKAPKLLIYGATNLASGVPSRFSGSGSGTDYTLTISSLQPEDFATYYCQHFWDTPYTFGQGTKVEIK
REPORTED_VALUE: 9.44
--
BINDER: Antibody h#2E1 (antibody, V domains shown, Humanized variant of 11B12; detected with anti-human IgG) VH: EVQLVESGGGLVQPGGSLRLSCAVSGYSITSGYYWNWIRQAPGKGLEWVAYISYDGNNNYNPSLKNRFTISRDTSKNTFYLQMNSLRAEDTAVYYCAREESTMITTAWFAYWGQGTLVTVSS VL: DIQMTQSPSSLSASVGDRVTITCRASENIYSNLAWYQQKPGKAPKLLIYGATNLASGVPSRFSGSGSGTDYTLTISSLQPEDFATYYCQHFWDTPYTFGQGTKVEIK
REPORTED_VALUE: 9.35
--
BINDER: Antibody h#2C1 (antibody, V domains shown, Humanized variant of 11B12) VH: EVQLVESGGGLVQPGGSLRLSCAVSGYSITSGYYWNWVRQAPGKGLEWVAYISYDGNNNYNPSLKNRFTISRDTSKNTFYLQMNSLRAEDTAVYYCAREESTMITTAWFAYWGQGTLVTVSS VL: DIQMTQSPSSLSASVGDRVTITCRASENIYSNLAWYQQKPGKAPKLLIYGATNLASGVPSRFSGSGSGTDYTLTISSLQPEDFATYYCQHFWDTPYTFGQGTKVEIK
REPORTED_VALUE: 9.40
